# Tested on: cocklebur
# Assay Details: Test C pre-/postemergence test
# Assay type: in vivo, Xanthium strumarium
# Run Conditions: preemergence, 125 g ai/ha; scale 0 (no effect) to 100 (complete control)
Measurement Kind: Cocklebur plant response rating

Compound	Assay Target	Measurement Kind	Measured Value
Cn1nc(C(F)(F)F)c(C[S+]([O-])c2cc(C(C)(C)C)cc[n+]2[O-])c1OC(F)F (racemic) [Compound 24]	cocklebur	Cocklebur plant response rating	0
Cc1cc[n+]([O-])c(S(=O)(=O)Cc2c(C(F)(F)F)nn(C)c2OC(F)F)c1 [Compound 2]	cocklebur	Cocklebur plant response rating	70
Cn1nc(C(F)(F)F)c(CS(=O)(=O)c2cccc[n+]2[O-])c1OCC(F)(F)F [Compound 29]	cocklebur	Cocklebur plant response rating	0
Cn1nc(C(F)(F)F)c(C[S+]([O-])c2ccc(Cl)c[n+]2[O-])c1OC(F)F (centres unmarked) [Compound 6]	cocklebur	Cocklebur plant response rating	0
Cc1cc[n+]([O-])c(S(=O)(=O)C(C)c2c(C(F)(F)F)nn(C)c2Cl)c1 (racemic) [Compound 14]	cocklebur	Cocklebur plant response rating	10
Cc1cc[n+]([O-])c([S+]([O-])Cc2c(C(F)(F)F)nn(C)c2OC(F)F)c1 (centres unmarked) [Compound 1]	cocklebur	Cocklebur plant response rating	0
Cn1nc(C(F)(F)F)c(CS(=O)(=O)c2cccc[n+]2[O-])c1OC(F)F [Compound 4]	cocklebur	Cocklebur plant response rating	0
CC(c1c(C(F)(F)F)nn(C)c1OCC(F)(F)F)S(=O)(=O)c1cccc[n+]1[O-] (racemic) [Compound 33]	cocklebur	Cocklebur plant response rating	40
Cc1cc[n+]([O-])c([S+]([O-])Cc2c(C(F)(F)F)nn(C)c2OCC(F)(F)F)c1 (racemic) [Compound 30]	cocklebur	Cocklebur plant response rating	80
Cc1cc[n+]([O-])c([S+]([O-])Cc2c(C(F)(F)F)nn(C)c2Cl)c1 (racemic) [Compound 20]	cocklebur	Cocklebur plant response rating	0
Cn1nc(C(F)(F)F)c(CS(=O)(=O)c2ccc(Cl)c[n+]2[O-])c1OC(F)F [Compound 7]	cocklebur	Cocklebur plant response rating	0

###

# Test system: soybean
# Assay Details: Test C pre-/postemergence test
# Assay type: in vivo, Glycine max
# Run Conditions: Postemergence, 125 g ai/ha; scale 0 to 100, 0 no effect, 100 complete control

Molecule	Assay Target	Plant response rating, Soybean
Cn1nc(C(F)(F)F)c(C[S+]([O-])c2ccc(Cl)c[n+]2[O-])c1OCC(F)(F)F (racemic) [Compound 62]	soybean	60
Cn1nc(C(F)(F)C(F)(F)F)c(C[S+]([O-])c2cccc[n+]2[O-])c1OCC(F)(F)F (stereo not drawn) [Compound 79]	soybean	60
CC(Oc1c(CS(=O)(=O)c2cccc[n+]2[O-])c(C(F)(F)F)nn1C)C(F)(F)F (stereo not drawn) [Compound 82]	soybean	0
CCn1nc(C(F)(F)F)c(C(C)S(=O)(=O)c2cccc[n+]2[O-])c1OCC(F)(F)F (stereo not drawn) [Compound 69]	soybean	30
Cn1nc(C(F)(F)F)c(C[S+]([O-])c2ccc(F)c[n+]2[O-])c1OC(F)F (stereo not drawn) [Compound 58]	soybean	60
Cn1nc(C(F)(F)F)c(C[S+]([O-])c2ccc(F)c[n+]2[O-])c1OCC(F)(F)F (stereo not drawn) [Compound 67]	soybean	50
